System: MDA-MB-468 breast
assay-explanation: NCI tumour cell line growth inhibition, 48 h
// reported TGI per item
# output: bare number, implied unit µM

Would you please look over these solved cases?
Recorded TGI for CC(C)(C)c1ccc(C(=O)Nc2sc3c(c2C(N)=O)CCC(=O)C3)cc1 , please?
2.09

Recorded TGI for COc1cc(/C=C/[N+](=O)[O-])cc(Br)c1OC , please?
3.28

Let us examine a further case.
Recorded TGI for CN1CCC(n2cnc(-c3ccc(F)cc3)c2-c2ccnc(N)n2)CC1 , please?
21.1

---

Test system: MDA-MB-468 breast
assay-explanation: NCI tumour cell line growth inhibition, 48 h; in the data active = GI50 below about 0.43 µM; inactive = the rest
// classify into yes (1) (active), no (0) (inactive)

Please let me know the test result on file for COC(=O)c1nc(-c2ccccc2)oc1S(=O)(=O)n1nc(C)cc1N .
no (0)

---
Please let me know the test result on file for Cn1cc(-c2nonc2-c2cn(C)c3ccccc23)c2ccccc21 .
no (0)

---

// reported GI50 per item
Test system: MDA-MB-468 breast
assay-explanation: NCI tumour cell line growth inhibition, 48 h

Recorded GI50 for Cc1nc2ccccc2c(/C=C/c2ccc(Br)cc2)c1C(=O)/C=C/c1ccccc1 , please?
1980 nM

Recorded GI50 for CC(C)(C)c1ccc(C(=O)Nc2sc3c(c2C(N)=O)CCC(=O)C3)cc1 , please?
506 nM

Recorded GI50 for CC1OC(O[C@H]2/C=C/C=C/C=C/C=C/C=C/C=C/C=C/[C@H](C)[C@@H](O)[C@@H](C)[C@H](C)OC(=O)CC(O)CC(O)CCC(O)C(O)CC(O)C[C@]3(O)C[C@H](O)C(C(=O)O)C(C2)O3)C(O)[C@H](N)C1O (stereo partly specified) , please?
14900 nM

Recorded GI50 for COc1cc(/C=C/[N+](=O)[O-])cc(Br)c1OC , please?
1590 nM

Recorded GI50 for COc1ccc(/C=N/NC(=O)Cn2c(-c3ccc(S(C)(=O)=O)cc3)nc3cc(Cl)ccc32)cc1 , please?
1510 nM

---
Recorded GI50 for N#CN1CC[C@H](C(=O)Nc2ncc(-c3ccncc3)s2)C1 , please?
< 15.6 nM
